- EXPERIMENT SUMMARY: physchem
- TEST CONTEXT: organic solvent or mixture, thermodynamic from solid
MEASUREMENT LABEL: solubility

[[record]]
structure_as_smiles = "C[N+]1(CCN2c3ccccc3N(c3ccccc3)c3ccccc32)CCCCC1.F[P-](F)(F)(F)(F)F"
obs_value = "500 mM"

